molecular target: UniProt:P02769; assay: Serum albumin binding; details: cattle
Sequence (P02769 whole entry): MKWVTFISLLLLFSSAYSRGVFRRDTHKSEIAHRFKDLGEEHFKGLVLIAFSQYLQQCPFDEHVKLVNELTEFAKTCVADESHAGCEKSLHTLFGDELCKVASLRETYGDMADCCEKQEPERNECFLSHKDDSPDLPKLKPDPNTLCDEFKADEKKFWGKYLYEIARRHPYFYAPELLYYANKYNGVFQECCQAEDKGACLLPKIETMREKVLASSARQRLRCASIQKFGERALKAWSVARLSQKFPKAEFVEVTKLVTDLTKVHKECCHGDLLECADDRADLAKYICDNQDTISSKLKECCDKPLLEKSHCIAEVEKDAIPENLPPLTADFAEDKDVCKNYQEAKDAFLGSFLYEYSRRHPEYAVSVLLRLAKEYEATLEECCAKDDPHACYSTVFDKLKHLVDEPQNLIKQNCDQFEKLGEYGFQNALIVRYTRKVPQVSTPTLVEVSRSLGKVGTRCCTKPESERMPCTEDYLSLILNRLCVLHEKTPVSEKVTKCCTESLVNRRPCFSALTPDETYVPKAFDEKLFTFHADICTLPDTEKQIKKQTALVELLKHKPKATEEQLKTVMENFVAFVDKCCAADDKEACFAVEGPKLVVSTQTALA
Please provide measured log10 of Amount bound for the entries that follow.
Friendly reminder: values = log10 of Amount bound, unit M/g.

Record summary for OC[C@H]1OC(n2cnc3c(NCC4CCCCC4)ncnc32)[C@H](O)[C@@H]1O (stereo not given in full) : reported log10 of Amount bound = 0.85

Record summary for CC(CC1CCCCC1)Nc1ncnc2c1ncn2C1O[C@H](CO)[C@@H](O)[C@H]1O (stereo not given in full) : reported log10 of Amount bound = 1.29

Record summary for "OC[C@H]1O[C@@H](n2cnc3c(NC4CCCCC4)ncnc32)[C@H](O)[C@@H]1O" : reported log10 of Amount bound = 0.11

Record summary for OC[C@H]1O[C@@H](n2cnc3c(NC4CC5CCC4C5)ncnc32)[C@H](O)[C@@H]1O (stereo in doubt; 58) : reported log10 of Amount bound = 0.32

Record summary for OCCNc1ncnc2c1ncn2C1O[C@H](CO)[C@@H](O)[C@H]1O (stereo not given in full) : reported log10 of Amount bound = -0.28

###

assay: HPLC capacity factor (k'); format: ADME
Please assign 0 (no) whenever k' is at or above 2, and 1 (yes) whenever it is below.

Regarding OC[C@H]1OC(n2cnc3c(NC(c4ccccc4)c4ccccc4)ncnc32)[C@H](O)[C@@H]1O (some centres undefined) , kindly confirm whether its k' is beneath 2.
0 (no)

Regarding OC[C@H]1OC(n2cnc3c(NCCC4CCCCC4)ncnc32)[C@H](O)[C@@H]1O (some centres undefined) , kindly confirm whether its k' is beneath 2.
0 (no)

Regarding OC[C@H]1OC(n2cnc3c(NC(C4CC4)C4CC4)ncnc32)[C@H](O)[C@@H]1O (some centres undefined) , kindly confirm whether its k' is beneath 2.
0 (no)

Regarding CC(C)(C)Nc1ncnc2c1ncn2C1O[C@H](CO)[C@@H](O)[C@H]1O (some centres undefined) , kindly confirm whether its k' is beneath 2.
0 (no)

Regarding CCCCCCC(C)Nc1ncnc2c1ncn2C1O[C@H](CO)[C@@H](O)[C@H]1O (some centres undefined) , kindly confirm whether its k' is beneath 2.
0 (no)

Regarding "C[C@@H](Nc1ncnc2c1ncn2[C@@H]1O[C@H](CO)[C@@H](O)[C@H]1O)c1ccccc1" , kindly confirm whether its k' is beneath 2.
1 (yes)

Regarding "COc1ncnc2c1ncn2[C@@H]1O[C@H](CO)[C@@H](O)[C@@H]1O" , kindly confirm whether its k' is beneath 2.
1 (yes)

Regarding "OC[C@H]1O[C@@H](n2cnc3/c(=N\OCc4ccccc4)[nH]cnc32)[C@H](O)[C@@H]1O" , kindly confirm whether its k' is beneath 2.
1 (yes)

Regarding "C=CCNc1ncnc2c1ncn2[C@@H]1O[C@H](CO)[C@@H](O)[C@H]1O" , kindly confirm whether its k' is beneath 2.
1 (yes)

###

test: HPLC capacity factor (k'); type: ADME
Please provide measured k' for the entries that follow.
No unit in the answer, please; the number alone is enough.

Record summary for "OC[C@H]1O[C@@H](n2cnc3c(NC4CCCCC4)ncnc32)[C@H](O)[C@@H]1O" : reported k' = 2.12

Record summary for CC(C)(C)CNc1ncnc2c1ncn2C1O[C@H](CO)[C@@H](O)[C@H]1O (stereo not given in full) : reported k' = 2.5

Record summary for C#CCNc1ncnc2c1ncn2C1O[C@H](CO)[C@@H](O)[C@H]1O (stereo not given in full) : reported k' = 0.21

Record summary for CC1(Nc2ncnc3c2ncn3C2O[C@H](CO)[C@@H](O)[C@H]2O)CCCC1 (stereo not given in full) : reported k' = 5.02

Record summary for OC[C@H]1OC(n2cnc3c(NC(Cc4ccccc4)Cc4ccccc4)ncnc32)[C@H](O)[C@@H]1O (stereo not given in full) : reported k' = 14.83

###

Please provide measured MPR for the entries that follow.
target: Adenosine receptor A2a (Canis lupus familiaris) (UniProt P11617); test: Molar potency ratio was evaluated
Sequence (P11617 whole entry, looked up): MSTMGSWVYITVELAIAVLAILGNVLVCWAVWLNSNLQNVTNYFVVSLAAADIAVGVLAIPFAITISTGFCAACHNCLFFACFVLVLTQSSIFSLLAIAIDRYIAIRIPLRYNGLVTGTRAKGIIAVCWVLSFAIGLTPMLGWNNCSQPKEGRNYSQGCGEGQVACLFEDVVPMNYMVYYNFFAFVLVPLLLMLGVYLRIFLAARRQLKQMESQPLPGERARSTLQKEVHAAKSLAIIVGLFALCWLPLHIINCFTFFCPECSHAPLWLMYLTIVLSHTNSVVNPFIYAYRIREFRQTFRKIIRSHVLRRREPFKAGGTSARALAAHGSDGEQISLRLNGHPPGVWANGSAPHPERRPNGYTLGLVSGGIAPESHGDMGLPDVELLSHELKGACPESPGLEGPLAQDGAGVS
No unit in the answer, please; the number alone is enough.

Record summary for OC[C@H]1OC(n2cnc3c(NCC4CC4)ncnc32)[C@H](O)[C@@H]1O (stereo partly drawn) : reported MPR = 0.58

Record summary for OC[C@H]1OC(n2cnc3c(NCCC4CCCCC4)ncnc32)[C@H](O)[C@@H]1O (stereo partly drawn) : reported MPR = 0.04

Record summary for CC(C)(C)CNc1ncnc2c1ncn2C1O[C@H](CO)[C@@H](O)[C@H]1O (stereo partly drawn) : reported MPR = 0.064

Record summary for CCCCCC(C)Nc1ncnc2c1ncn2C1O[C@H](CO)[C@@H](O)[C@H]1O (stereo partly drawn) : reported MPR = 0.31

Record summary for CC[C@H](C)Nc1ncnc2c1ncn2C1O[C@H](CO)[C@@H](O)[C@H]1O (single isomer, unassigned) : reported MPR = 2.6

Record summary for CCCCCCC(C)Nc1ncnc2c1ncn2C1O[C@H](CO)[C@@H](O)[C@H]1O (stereo partly drawn) : reported MPR = 0.052

Record summary for CCCC(C)Nc1ncnc2c1ncn2C1O[C@H](CO)[C@@H](O)[C@H]1O (stereo partly drawn) : reported MPR = 1.1

Record summary for "OC[C@H]1O[C@@H](n2cnc3c(Cl)ncnc32)[C@H](O)[C@@H]1O" : reported MPR = 0.023

Record summary for "C[C@H](CNc1ncnc2c1ncn2[C@@H]1O[C@H](CO)[C@@H](O)[C@H]1O)c1ccccc1" : reported MPR = 3

Record summary for "OC[C@H]1O[C@@H](n2cnc3c(NC4CCCC4)ncnc32)[C@H](O)[C@@H]1O" : reported MPR = 1.8

Record summary for CCNc1ncnc2c1ncn2C1O[C@H](CO)[C@@H](O)[C@H]1O (stereo partly drawn) : reported MPR = 0.15

Record summary for C#CCNc1ncnc2c1ncn2C1O[C@H](CO)[C@@H](O)[C@H]1O (stereo partly drawn) : reported MPR = 0.23

Record summary for "OC[C@H]1O[C@@H](n2cnc3c(NC4CCCCCC4)ncnc32)[C@H](O)[C@@H]1O" : reported MPR = 0.18

Record summary for "C[C@@H](Nc1ncnc2c1ncn2[C@@H]1O[C@H](CO)[C@@H](O)[C@H]1O)[C@H](O)c1ccccc1" : reported MPR = 1.8

Record summary for OCCNc1ncnc2c1ncn2C1O[C@H](CO)[C@@H](O)[C@H]1O (stereo partly drawn) : reported MPR = 0.14

Record summary for CC(CC1CCCCC1)Nc1ncnc2c1ncn2C1O[C@H](CO)[C@@H](O)[C@H]1O (stereo partly drawn) : reported MPR = 0.15

Record summary for OC[C@H]1OC(n2cnc3c(NCC(O)c4ccccc4)ncnc32)[C@H](O)[C@@H]1O (stereo partly drawn) : reported MPR = 1.4

Record summary for "COc1ncnc2c1ncn2[C@@H]1O[C@H](CO)[C@@H](O)[C@@H]1O" : reported MPR = 0.004

Record summary for CC(C)(C)CCNc1ncnc2c1ncn2C1O[C@H](CO)[C@@H](O)[C@H]1O (stereo partly drawn) : reported MPR = 0.084

Record summary for OC[C@H]1OC(n2cnc3c(NC(C4CC4)C4CC4)ncnc32)[C@H](O)[C@@H]1O (stereo partly drawn) : reported MPR = 1.5

Record summary for "CNc1ncnc2c1ncn2[C@@H]1O[C@H](CO)[C@@H](O)[C@H]1O" : reported MPR = 0.05

Record summary for "OC[C@H]1O[C@@H](n2cnc3c(NC4CCC4)ncnc32)[C@H](O)[C@@H]1O" : reported MPR = 1.6

Record summary for CN(Nc1ncnc2c1ncn2C1O[C@H](CO)[C@@H](O)[C@H]1O)c1ccccc1 (stereo partly drawn) : reported MPR = 1.8

Record summary for "Cc1ncnc2c1ncn2[C@@H]1O[C@H](CO)[C@@H](O)[C@H]1O" : reported MPR = 0.007

Record summary for "CC[C@H](CO)Nc1ncnc2c1ncn2[C@@H]1O[C@H](CO)[C@@H](O)[C@H]1O" : reported MPR = 0.77

Record summary for "OC[C@H]1O[C@@H](n2cnc3cncnc32)[C@H](O)[C@@H]1O" : reported MPR = 0.023

Record summary for NCCNc1ncnc2c1ncn2C1O[C@H](CO)[C@@H](O)[C@H]1O (stereo partly drawn) : reported MPR = 0.072

Record summary for OC[C@H]1O[C@@H](n2cnc3c(NC4C5CCC4CC5)ncnc32)[C@H](O)[C@@H]1O (stereo partly drawn) : reported MPR = 0.39

Record summary for "OC[C@H]1O[C@@H](n2cnc3c(N[C@H]4C[C@@H]4c4ccccc4)ncnc32)[C@H](O)[C@@H]1O" : reported MPR = 0.7

Record summary for CC1(Nc2ncnc3c2ncn3C2O[C@H](CO)[C@@H](O)[C@H]2O)CCCC1 (stereo partly drawn) : reported MPR = 0.033

Record summary for CCC(CNc1ncnc2c1ncn2C1O[C@H](CO)[C@@H](O)[C@H]1O)c1ccccc1 (stereo partly drawn) : reported MPR = 3.3

Record summary for CC(C)C(Nc1ncnc2c1ncn2C1O[C@H](CO)[C@@H](O)[C@H]1O)C(C)C (stereo partly drawn) : reported MPR = 0.75

Record summary for "CCCCNc1ncnc2c1ncn2[C@@H]1O[C@H](CO)[C@@H](O)[C@H]1O" : reported MPR = 0.38

Record summary for "OC[C@H]1O[C@@H](n2cnc3/c(=N\OCc4ccccc4)[nH]cnc32)[C@H](O)[C@@H]1O" : reported MPR = 0.42

Record summary for "CC(C)Nc1ncnc2c1ncn2[C@@H]1O[C@H](CO)[C@@H](O)[C@H]1O" : reported MPR = 0.71

Record summary for "CN(C)c1ncnc2c1ncn2[C@@H]1O[C@H](CO)[C@@H](O)[C@H]1O" : reported MPR = 0.001

Record summary for CCCNc1ncnc2c1ncn2C1O[C@H](CO)[C@@H](O)[C@H]1O (stereo partly drawn) : reported MPR = 0.64

Record summary for "CC[C@@H](CO)Nc1ncnc2c1ncn2[C@@H]1O[C@H](CO)[C@@H](O)[C@H]1O" : reported MPR = 0.12
